Entry source: PubChem BioAssay (NCI)

Test system: HCT-116 colon
Assay Details: NCI tumour cell line growth inhibition, 48 h; in the data active means GI50 below about 0.43 µM; inactive means the rest
Log the outcome using a class from True for active, False for inactive

Compound	Test Target	Assigned Category
O=C(c1ccccc1)C(CN1CCCCC1)c1ccccc1 (stereo not drawn)	HCT-116 colon	False
O=C(Nc1ccncc1)C(=O)c1cn(S(=O)(=O)c2ccc(Cl)cc2)c2ccccc12	HCT-116 colon	True
CCN(CC)CCCNCc1cc(-c2ccccc2)nc2ccccc12	HCT-116 colon	True
CC(C)=CCC[C@](C)(O)[C@H]1CC[C@]2(C)[C@@H]1CC[C@@H]1[C@@]3(C)CC/C(=N/O)C(C)(C)[C@@H]3CC[C@]12C	HCT-116 colon	False
NCCOCCOCCNc1nc(-c2ccccc2)nc(N2CCN(c3ccccn3)CC2)n1	HCT-116 colon	False
Cc1cc(N2CCOCC2)nc(N[C@@H]2CCC[C@H](Nc3ccnc4cc(Cl)ccc34)C2)n1	HCT-116 colon	False
O=C1C=CC(=Nc2cc(Br)c(O)c(Br)c2)C=C1	HCT-116 colon	False
O=C(Nc1ccc(-n2ccc3c(NC(=O)c4ccccc4)ncnc32)cc1)Nc1ccc(Cl)c(Cl)c1	HCT-116 colon	False
C[As](C)SCC(COC(=O)C(Cl)c1ccccc1)OC(=O)C(Cl)c1ccccc1 (stereo not drawn)	HCT-116 colon	False
CC(C)(C)c1cc(-n2c(-c3ccc(Cl)cc3)nc3cc(C(=O)Nc4ccc(Cl)cc4)ccc32)n[nH]1	HCT-116 colon	False

Q: For COc1ccc2c(=O)cc(C(Cl)(Cl)Cl)oc2c1 , which call appears in the assay record?
Ans: True

Q: For NCCCCCCCn1c2c(c3ccccc3c1=O)C(=O)c1ccccc1-2 , which call appears in the assay record?
Ans: False

Q: For Cc1nnc(-c2cccc(-c3ccc(C(=O)NCC4CC4)cc3)c2)o1 , which call appears in the assay record?
Ans: False

###

System: SK-OV-3 ovarian
Assay Details: NCI tumour cell line growth inhibition, 48 h
Metric Name: TGI

Example results:
Compound	Endpoint Value
COC(=O)C(C(=O)C(=O)Nc1ccc([N+](=O)[O-])cc1[N+](=O)[O-])c1nc2ccc(Cl)cc2[nH]c1=O (centres undefined)	> 100 µM
C#Cc1c(/C=C/C(=O)OCC)ccc2ccccc12	> 100 µM
CC(=O)O[C@H]1CC[C@@]2(C)C(=CC[C@@H]3[C@@H]2CC[C@]2(C)c4c(C)nn(-c5ccccc5)c4C[C@@H]32)C1	44.5 µM
CCOC(=O)C1=CCOc2cc(N(C)C)ccc21	> 100 µM
CC(=O)C1=C(O)C=C2Oc3c(C(=O)/C=C/c4c(Cl)cccc4Cl)c(O)c(C)c(O)c3[C@]2(C)C1=O	7.4 µM

Q: Missing value: TGI, SK-OV-3 ovarian, entry COC1CC(COCc2ccccc2)CC(OC)O1 (centres undefined) . Fill in?
Ans: > 100 µM

Q: Missing value: TGI, SK-OV-3 ovarian, entry O=c1[nH]nc(-c2ccccc2)n1/N=C/c1cccs1 . Fill in?
Ans: > 100 µM

Q: Missing value: TGI, SK-OV-3 ovarian, entry O=C(c1ccccc1)c1ccc2[nH]c(-c3c(Cl)c(Cl)c(Cl)c(Cl)c3C(=O)N/N=C/c3cccc(Oc4ccccc4)c3)nc2c1 . Fill in?
Ans: > 100 µM

Q: Missing value: TGI, SK-OV-3 ovarian, entry CC(Nc1ccc(S(=O)(=O)N=C(N)N)cc1)c1c2ccccc2nc2ccccc12 (centres undefined) . Fill in?
Ans: 73.6 µM

###

Below, each entry is listed with its recorded TGI.
Test system: A549 NSCLC
Assay Details: NCI tumour cell line growth inhibition, 48 h

Compound	TGI
CC(C)N=C(N)NC#N	> 100 µM
CCOC(=O)N1CCC(=O)C(CNC23CC4CC(CC(C4)C2)C3)C1 (stereo unspecified)	> 100 µM

Q: Recorded TGI of [N-]=[N+]=NC(c1cn(C2CC(O)C(CO)O2)c(=O)[nH]c1=O)C(Cl)I (stereo unspecified) , please.
Ans: > 100 µM

Q: Recorded TGI of CCC(=O)Nc1ccc(NC(C#N)c2cccc(Oc3ccccc3)c2)cc1 (stereo unspecified) , please.
Ans: > 100 µM

Q: Recorded TGI of NC(Cc1ccc(N(CCCl)CCCl)cc1)C(=O)NC(CCC(=O)O)C(=O)O (stereo unspecified) , please.
Ans: > 100 µM

Q: Recorded TGI of NC(=O)/N=C1/CCC2C3CCCC2C13 , please.
Ans: > 100 µM

###

System: LOX IMVI melanoma
Assay Details: NCI tumour cell line growth inhibition, 48 h; in the data active = GI50 below about 0.43 µM; inactive = the rest
Log the outcome using a class from 1 = active, 0 = inactive

Would you please look over these solved cases?
Molecule	Test Target	Assigned Category
Cc1csc(/C=C/C(=O)c2nnn(-c3ccnc4c(C(F)(F)F)cccc34)c2C)c1	LOX IMVI melanoma	0
COC(=O)c1cc(O)c2cc3c(cc2c1-c1cc(OC)c(OC)c(OC)c1)OCO3	LOX IMVI melanoma	0
CC(=O)c1c(C)[nH]c(-c2nc3ccc(N4CCN(C)CC4)cc3[nH]2)c1-c1ccc(N(C)C)cc1	LOX IMVI melanoma	1
COc1cc(C2SCC(=O)N2c2ncc(C)s2)cc(OC)c1OC (stereo not given)	LOX IMVI melanoma	0

Q: For O=C(NCCCO)c1cc(Cl)ccc1O , which call appears in the assay record?
Ans: 0

Q: For Cc1nnc(-c2cccc(-c3ccc(C(=O)NCC4CC4)cc3)c2)o1 , which call appears in the assay record?
Ans: 0

Q: For CC(=O)C1=C(O)C=C2Oc3c(C(=O)/C=C/c4c(Cl)cccc4Cl)c(O)c(C)c(O)c3[C@]2(C)C1=O , which call appears in the assay record?
Ans: 0

Q: For C#CCSc1cc(Cl)c(C)cc1S(=O)(=O)Nc1nc2ccccc2o1 , which call appears in the assay record?
Ans: 0

Q: For O=C(c1ccccc1)C1OC1c1ccc([N+](=O)[O-])cc1 (stereo not given) , which call appears in the assay record?
Ans: 0

Q: For Oc1ccc(-c2nc3ccccc3s2)cc1CN(Cc1ccccn1)Cc1ccccn1 , which call appears in the assay record?
Ans: 0

###

Test system: NCI/ADR-RES ovarian
Assay Details: NCI tumour cell line growth inhibition, 48 h
Metric Name: GI50

Example results:
Compound	Endpoint Value
C=CC(=O)Nc1cc(C)ccc1Nc1nc(Nc2cc(OC)ncc2C)ncc1C(F)(F)F	1.69 µM
O=C(Nc1ccc(-n2ccc3c(NC(=O)c4ccccc4)ncnc32)cc1)Nc1ccc(Cl)c(Cl)c1	10.3 µM
O=C(c1ccccc1)C1OC1c1ccc([N+](=O)[O-])cc1 (stereo not given)	2.58 µM
O=C(c1ccccc1)C(CN1CCCCC1)c1ccccc1 (stereo not given)	1.27 µM
CCN(CC)c1ccc(C(O)C2=CC(=O)c3ccccc3C2=O)cc1 (stereo not given)	> 32.9 µM

Q: Missing value: GI50, NCI/ADR-RES ovarian, entry O=c1cc(-c2cccc3c2Sc2ccccc2S3)oc(N2CCOCC2)c1 . Fill in?
Ans: 12.8 µM

Q: Missing value: GI50, NCI/ADR-RES ovarian, entry O=C(Cc1ccc(F)c(F)c1)Nc1cc(C2(C(F)(F)F)CC2)nn1Cc1ccccc1 . Fill in?
Ans: 3.98 µM

Q: Missing value: GI50, NCI/ADR-RES ovarian, entry C[As](C)SCC(COC(=O)C(Cl)c1ccccc1)OC(=O)C(Cl)c1ccccc1 (stereo not given) . Fill in?
Ans: 2.76 µM

Q: Missing value: GI50, NCI/ADR-RES ovarian, entry NCCOCCOCCNc1nc(-c2ccccc2)nc(N2CCN(c3ccccn3)CC2)n1 . Fill in?
Ans: 16 µM

Q: Missing value: GI50, NCI/ADR-RES ovarian, entry C[n+]1c2cc(N)ccc2cc2ccc(N)cc21 . Fill in?
Ans: 2.72 µM [middle of 4 runs]

###

Tested on: UO-31 renal
Assay Details: NCI tumour cell line growth inhibition, 48 h
Metric Name: TGI

Compound	TGI
CCC(=O)Nc1ccc(NC(C#N)c2cccc(Oc3ccccc3)c2)cc1 (centres undefined)	> 100 µM
CC(=O)O[C@H]1CC[C@@]2(C)C(=CC[C@@H]3[C@@H]2CC[C@]2(C)c4c(C)nn(-c5ccccc5)c4C[C@@H]32)C1	47.3 µM
Cn1cnc([N+](=O)[O-])c1Sc1nccn1-c1cccc2ccccc12	> 100 µM

Q: Recorded TGI of COc1ccc2c(=O)cc(C(Cl)(Cl)Cl)oc2c1 , please.
Ans: 15.7 µM

Q: Recorded TGI of C[C@@]12CCC[C@@](C)(C(=O)O)C1CC[C@]13C[C@@](O)(CO)[C@](O)(CCC12)C3 (some centres undefined) , please.
Ans: > 100 µM

Q: Recorded TGI of C/C=C(\C)C(O)C(C)C(O)C/C=C(C)/C=C(\C)C/C(C)=C/C/C=C(\C)C(O)C(C)c1ccc(CCC)c(=O)o1 (centres undefined) , please.
Ans: 21 µM

Q: Recorded TGI of CC(C)=CCC[C@](C)(O)[C@H]1CC[C@]2(C)[C@@H]1CC[C@@H]1[C@@]3(C)CC/C(=N/O)C(C)(C)[C@@H]3CC[C@]12C , please.
Ans: > 100 µM

Q: Recorded TGI of O=C(O)CCSCc1ccccc1 , please.
Ans: > 100 µM

Q: Recorded TGI of CC(=O)Nc1c(C)cc2c(nc3n2CCC3OC(C)=O)c1[N+](=O)[O-] (centres undefined) , please.
Ans: > 100 µM
